# ASSAY SYSTEM: intracellular GCN2 (phosphorylation of the GCN2 substrate eIF2α) (Homo sapiens)
# Sequence (Q9P2K8 whole entry): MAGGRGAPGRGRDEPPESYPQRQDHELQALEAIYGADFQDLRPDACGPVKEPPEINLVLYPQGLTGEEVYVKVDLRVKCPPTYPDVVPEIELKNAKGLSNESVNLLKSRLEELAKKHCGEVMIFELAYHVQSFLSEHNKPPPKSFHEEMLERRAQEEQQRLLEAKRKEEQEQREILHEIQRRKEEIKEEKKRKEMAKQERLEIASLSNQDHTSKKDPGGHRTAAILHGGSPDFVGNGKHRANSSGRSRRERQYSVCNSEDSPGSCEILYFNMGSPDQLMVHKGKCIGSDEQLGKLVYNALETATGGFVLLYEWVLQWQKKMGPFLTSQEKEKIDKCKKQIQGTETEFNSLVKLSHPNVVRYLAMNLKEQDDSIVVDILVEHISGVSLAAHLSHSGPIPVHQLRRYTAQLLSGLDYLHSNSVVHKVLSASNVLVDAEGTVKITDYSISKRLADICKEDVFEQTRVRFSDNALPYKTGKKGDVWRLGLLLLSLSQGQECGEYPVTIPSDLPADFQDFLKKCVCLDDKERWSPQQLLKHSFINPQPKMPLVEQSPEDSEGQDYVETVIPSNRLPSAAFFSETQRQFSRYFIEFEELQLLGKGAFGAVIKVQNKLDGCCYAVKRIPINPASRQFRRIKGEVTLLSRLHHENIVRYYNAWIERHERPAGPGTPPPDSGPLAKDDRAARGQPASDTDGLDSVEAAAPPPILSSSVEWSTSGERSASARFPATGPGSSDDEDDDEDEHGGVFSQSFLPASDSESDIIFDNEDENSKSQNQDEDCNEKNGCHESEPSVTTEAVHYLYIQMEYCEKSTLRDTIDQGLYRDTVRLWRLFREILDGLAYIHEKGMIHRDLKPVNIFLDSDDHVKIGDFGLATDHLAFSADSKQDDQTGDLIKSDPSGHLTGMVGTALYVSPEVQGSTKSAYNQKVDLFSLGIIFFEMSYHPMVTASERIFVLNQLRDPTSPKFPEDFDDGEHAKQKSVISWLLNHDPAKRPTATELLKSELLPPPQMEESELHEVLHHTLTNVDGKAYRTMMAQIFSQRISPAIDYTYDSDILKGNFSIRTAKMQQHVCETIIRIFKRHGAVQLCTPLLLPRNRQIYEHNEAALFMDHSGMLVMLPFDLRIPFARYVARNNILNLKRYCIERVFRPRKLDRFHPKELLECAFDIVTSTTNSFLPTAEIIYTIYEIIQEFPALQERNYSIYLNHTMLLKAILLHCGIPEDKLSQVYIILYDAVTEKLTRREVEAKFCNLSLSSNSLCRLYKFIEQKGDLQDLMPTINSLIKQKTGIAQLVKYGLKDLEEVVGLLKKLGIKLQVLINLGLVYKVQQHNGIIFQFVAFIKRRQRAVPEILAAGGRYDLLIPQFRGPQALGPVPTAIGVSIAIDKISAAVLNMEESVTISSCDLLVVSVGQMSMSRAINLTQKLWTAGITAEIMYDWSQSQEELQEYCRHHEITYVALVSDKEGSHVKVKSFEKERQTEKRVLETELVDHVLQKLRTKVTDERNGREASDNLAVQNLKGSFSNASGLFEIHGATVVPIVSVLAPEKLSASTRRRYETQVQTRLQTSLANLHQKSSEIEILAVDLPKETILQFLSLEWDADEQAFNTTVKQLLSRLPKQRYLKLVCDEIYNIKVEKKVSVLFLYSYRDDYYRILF
# ASSAY INFO: GCN2 cellular inhibition assay (AlphaScreen SureFire P-eIF2α Ser51, borrelidin-treated U2OS cells)
# Format: cell-based
# TEST CONTEXT: compounds of Formula IV; biomarker assay, phosphorylated eIF2α Ser51 in borrelidin-treated U2OS cells
pIC50: −log10 of the molar value.
EXPERIMENTAL ENDPOINT: pIC50

Incoming: Using known records, supply pIC50 for O=C1CCN(c2ccnc(-c3cnc4cnc(C(F)F)cn34)n2)CCN1 [IV-49]
Outgoing: < 5.30

Incoming: Using known records, supply pIC50 for CC(=O)N1CCN(c2ccnc(-c3cnc4cnc(C(C)(F)F)cn34)n2)CC1 [IV-78]
Outgoing: < 5.30

Incoming: Using known records, supply pIC50 for OCC1CCCCN(c2ccnc(-c3cnc4cnc(C(F)F)cn34)n2)C1 (stereo not drawn) [IV-88]
Outgoing: < 5.30

Incoming: Using known records, supply pIC50 for CC1CN(c2ccnc(-c3cnc4cnc(Cl)cn34)n2)CC(c2cn[nH]c2)O1 (stereo not drawn) [IV-193]
Outgoing: > 6.30

Incoming: Using known records, supply pIC50 for C[C@@H]1C[C@H](N=S(C)(C)=O)CN(c2ccnc(-c3cnc4cnc(C(F)F)cn34)n2)C1 [IV-772]
Outgoing: 5.30 to 6.30

Incoming: Using known records, supply pIC50 for O=c1[nH]nc2n1CCN(c1ccnc(-c3cnc4cnc(C(F)F)cn34)n1)C2 [IV-83]
Outgoing: < 5.30

Incoming: Using known records, supply pIC50 for CC1CN(c2ccnc(-c3cnc4cnc(C(F)(F)F)cn34)n2)CC(c2cn[nH]c2Cl)N1 (single isomer, unassigned) [IV-652]
Outgoing: 5.30 to 6.30

Incoming: Using known records, supply pIC50 for Brc1cn2c(-c3nccc(N4CCCC(c5cn[nH]c5)C4)n3)cnc2cn1 (stereo not drawn) [IV-346]
Outgoing: > 6.30

Incoming: Using known records, supply pIC50 for OCCC1CCN(c2ccnc(-c3cnc4cnc(C(F)(F)F)cn34)n2)CC1 [IV-442]
Outgoing: < 5.30

Incoming: Using known records, supply pIC50 for FC(F)c1cn2c(-c3nccc(N4CCC(c5cccnc5)C4)n3)cnc2cn1 (stereo not drawn) [IV-76]
Outgoing: < 5.30

Incoming: Using known records, supply pIC50 for NC(=O)C1CCCN(c2ccnc(-c3cnc4cnc(C(F)F)cn34)n2)C1 (stereo not drawn) [IV-42]
Outgoing: 5.30 to 6.30

Incoming: Using known records, supply pIC50 for FC(F)c1cn2c(-c3nccc(N4CCc5ccccc5C4)n3)cnc2cn1 [IV-115]
Outgoing: < 5.30

Incoming: Using known records, supply pIC50 for FC(F)c1cn2c(-c3nccc(N4CCCCC4)n3)cnc2cn1 [IV-103]
Outgoing: < 5.30

Incoming: Using known records, supply pIC50 for CC1CN(c2ccnc(-c3cnc4cnc(C(F)(F)F)cn34)n2)C(C)C(c2c[nH]cn2)O1 (single isomer, unassigned) [IV-638]
Outgoing: < 5.30

Incoming: Using known records, supply pIC50 for Fc1n[nH]cc1C1CCCN(c2ccnc(-c3cnc4cnc(C(F)(F)F)cn34)n2)C1 (single isomer, unassigned) [IV-492]
Outgoing: > 6.30

Incoming: Using known records, supply pIC50 for OCC1CCCN(c2ccnc(-c3cnc4cnc(C(F)(F)F)cn34)n2)C1 (stereo not drawn) [IV-439]
Outgoing: < 5.30

Incoming: Using known records, supply pIC50 for CCn1cc(-c2ccnc(-c3cnc4cnc(C(F)F)cn34)n2)cn1 [IV-154]
Outgoing: < 5.30

Incoming: Using known records, supply pIC50 for C[C@H]1COCCN1c1ccnc(-c2cnc3cnc(C(F)F)cn23)n1 [IV-81]
Outgoing: < 5.30
